Recorded Papp values for a group of compounds are listed next.
measurement description: in vitro
test settings: human, Caco-2, Caco-2 (cm/sec)
*1 amine or outer side, *2 acyl side, *3 side chain or, on linkers, in order; H or OH if unused. Where a SMILES comes first, the peptide text is derived from it. Bridges are numbered along the chain shown (N, C = ends). [ ]: non-standard residue; d: D form. The star is where a group is joined. Phe(3-CONHMe,4-OMe) = CNC(=O)c1cc(C[C@H](N)C(=O)O)ccc1OC; Phe(3-OMe,4-CONHMe) = CNC(=O)c1ccc(C[C@H](N)C(=O)O)cc1OC; NMePhe(3-Cl) = CN[C@@H](Cc1cccc(Cl)c1)C(=O)O; X9 = O=C([C@@H](CN[*:1])COCCO)[*:2]; NMeF = CN[C@@H](Cc1ccccc1)C(=O)O; NMeGABA = CN(CCCC(=O)[*:2])[*:1]; NMeL = CN[C@@H](CC(C)C)C(=O)O; Butyl(3R-OH) = C[C@@H](O)CC*; NMeAbu = CC[C@H](NC)C(=O)O; Piperidide = C1CCN(*)CC1; NBuGly = CCCCNCC(=O)O; Sar = CNCC(=O)O; tBu = CC(C)(C)*
The response must be a number in ×10⁻⁶ cm/s with no trailing unit.

Worked cases, Papp given:
- CCCCN1CC(=O)N(C)[C@@H](Cc2cccc(Cl)c2)C(=O)N(C)[C@@H](CC(C)C)C(=O)N[C@@H](COCC[C@@H](C)O)C(=O)N(C)[C@@H](CC(C)C)C(=O)N[C@H](C(=O)N2CCCCC2)CC(=O)N(C)CC(=O)N(C)[C@@H](Cc2ccccc2)C(=O)N[C@@H](C(C)C)C(=O)N(C)[C@@H](CC(C)C)C(=O)N[C@@H]([C@@H](C)O)C1=O [AP114] ([Sar][NMeF]V[NMeL]T[NBuGly][NMePhe(3-Cl)][NMeL]S(Butyl(3R-OH))[NMeL]D-Piperidide; lactam N-11): 0.28
- CC[C@H](C)[C@@H]1NC(=O)[C@H](CC(C)C)N(C)C(=O)CCCN(C)C(=O)C[C@@H](C(=O)N2CCCCC2)NC(=O)[C@H](CC(C)C)N(C)C(=O)[C@H](CC(C)C)N(C)C(=O)[C@H]([C@@H](C)O)NC(=O)[C@H](CC(C)C)N(C)C(=O)[C@H](Cc2ccc(OC)c(C(=O)NC)c2)NC(=O)[C@H](CC(C)C)N(C)C(=O)[C@H](Cc2ccccc2)N(C)C1=O [AP38] ([NMeGABA][NMeL]I[NMeF][NMeL][Phe(3-CONHMe,4-OMe)][NMeL]T[NMeL][NMeL]D-Piperidide; lactam N-11): 0.2
- CCCCN1CC(=O)N(C)[C@@H](CC(C)C)C(=O)N[C@H](C(=O)N2CCCCC2)CC(=O)N(C)[C@@H](CC(C)C)C(=O)NC[C@@H](COCCO)C(=O)N(C)[C@@H](CC(C)C)C(=O)N(C)[C@@H](Cc2ccccc2)C(=O)N[C@@H](CC(C)C)C(=O)N(C)[C@@H](Cc2ccccc2)C(=O)N(C)[C@@H](CC(C)C)C(=O)N[C@@H]([C@@H](C)O)C1=O [AP131] ([NMeL][X9][NMeL][NMeF]L[NMeF][NMeL]T[NBuGly][NMeL]D-Piperidide; lactam N-11): 1.1
- CC[C@H](C)[C@@H]1NC(=O)[C@H](CC(C)C)N(C)C(=O)CN(C)C(=O)C[C@@H](C(=O)N2CCCCC2)NC(=O)[C@H](CC(C)C)N(C)C(=O)[C@H](Cc2ccc(C(=O)NC)c(OC)c2)NC(=O)[C@H](CC(C)C)N(C)C(=O)[C@H](Cc2cccc(Cl)c2)N(C)C(=O)CN(C)C(=O)[C@H]([C@@H](C)O)NC(=O)[C@H](CC(C)C)N(C)C1=O [AP34] ([Sar][NMeL]I[NMeL]T[Sar][NMePhe(3-Cl)][NMeL][Phe(3-OMe,4-CONHMe)][NMeL]D-Piperidide; lactam N-11): 0.2
- CCCCN1CC(=O)N(C)[C@@H](Cc2ccccc2)C(=O)N(C)[C@@H](CC(C)C)C(=O)N[C@@H](CC(C)C)C(=O)N(C)[C@@H](CC(C)C)C(=O)N[C@H](C(=O)N2CCCCC2)CC(=O)N(C)CC(=O)N(C)[C@@H](CC(C)C)C(=O)N[C@@H](Cc2ccc(O)cc2)C(=O)N(C)[C@@H](CC)C(=O)N[C@@H]([C@@H](C)O)C1=O [Compound F07] ([Sar][NMeL]Y[NMeAbu]T[NBuGly][NMeF][NMeL]L[NMeL]D-Piperidide; lactam N-11): 0.54

Query (compound): CCCCN1CC(=O)N(C)[C@@H](CC(C)C)C(=O)N[C@@H](COC(C)(C)C)C(=O)N(C)[C@@H](CC(C)C)C(=O)N(C)[C@@H](CC)C(=O)N[C@H](C(=O)N2CCCCC2)CC(=O)N[C@H](CC(C)C)C(=O)N(C)[C@@H](Cc2ccccc2)C(=O)N[C@@H](Cc2ccc(O)cc2)C(=O)N(C)[C@@H](CC(C)C)C(=O)N[C@@H]([C@@H](C)O)C1=O [Compound F02] ([dL][NMeF]Y[NMeL]T[NBuGly][NMeL]S(tBu)[NMeL][NMeAbu]D-Piperidide; lactam N-11) ; field requested: Papp
0.04
